Assay: 2 h pharmacokinetic study with or without elacridar in wild-type and Abcb1a/1b;Abcg2-/- mice
Format: in vivo
Details: FVB, mouse, testis; male Abcb1a/1b;Abcg2-/- mice, vehicle, 10 mg/kg oral, 2 h; read-out: Ctestis
Experimental readout: concentration at 2 h

Prompt line: Entry `COc1ccc(CN2C3CC2CN(c2ccc(-c4cc(OCC(C)(C)O)cn5ncc(C#N)c45)cn2)C3)cn1` : reported concentration at 2 h = ?
Response line: 7020 ng/g

====

Assay: 4 h pharmacokinetic pilot study in wild-type, Abcb1a/1b;Abcg2-/- and Slco1a/1b-/- mice
Assay type: in vivo
Conditions: male, FVB (Abcb1a/1b;Abcg2-/-), mouse, in vivo, po, 10 mg/kg, Cbrain
Experimental readout: concentration at 4 h (ng/g)
# unit: ng/g | format: bare number

Prompt line: Give its concentration at 4 h value. Item: COc1ccc(CN2C3CC2CN(c2ccc(-c4cc(OCC(C)(C)O)cn5ncc(C#N)c45)cn2)C3)cn1 [selpercatinib]
Response line: 3450

====

Assay: 2 h pharmacokinetic study with or without elacridar in wild-type and Abcb1a/1b;Abcg2-/- mice
Assay type: in vivo
Conditions: FVB, mouse, small intestine tissue together with contents; male wild-type mice, elacridar 50 mg/kg oral 2 h prior, 10 mg/kg oral, 2 h; read-out: CSI + SIC (small intestine tissue together with contents concentration)
Experimental readout: concentration at 2 h
The reply must contain the numeric value and, after it, the unit.

Prompt line: Requested read-out: concentration at 2 h. Entry: `COc1ccc(CN2C3CC2CN(c2ccc(-c4cc(OCC(C)(C)O)cn5ncc(C#N)c45)cn2)C3)cn1`
Response line: 26600 ng/g

====

Test: 2 h pharmacokinetic study with or without elacridar in wild-type and Abcb1a/1b;Abcg2-/- mice
Type: in vivo
Details: FVB (wild-type), mouse, liver; male wild-type mice, vehicle, 10 mg/kg oral, 2 h; read-out: CLiver
Method: Mice were housed and handled according to institutional guidelines complying with Dutch and EU legislation. All experimental animal protocols were evaluated and approved by the institutional animal care and use committee. […] All experimental animal protocols (WP9450, 9669, 9760), including power calculations, designed under the nationally approved DEC/CCD project AVD301002016595, were evaluated and approved by the institutional animal care and use committee of The Netherlands Cancer Institute. […]
Experimental readout: concentration at 2 h
Form entry: enter the amount, then its unit.

Prompt line: Give its concentration at 2 h value. Item: `COc1ccc(CN2C3CC2CN(c2ccc(-c4cc(OCC(C)(C)O)cn5ncc(C#N)c45)cn2)C3)cn1`
Response line: 18100 ng/g

====

Assay: 8 h pharmacokinetic study in wild-type, Cyp3a-/- and Cyp3aXAV mice
Conditions: female, FVB, wild-type, mouse, in vivo, po, 10 mg/kg
Experimental readout: AUC(0-t) (ng·h/mL)
Report only the number, with the unit ng·h/mL understood.

Prompt line: Would you mind telling me what AUC(0-t) value was observed for COc1ccc(CN2C3CC2CN(c2ccc(-c4cc(OCC(C)(C)O)cn5ncc(C#N)c45)cn2)C3)cn1 [selpercatinib] ?
Response line: 52300

====

Test: 4 h main pharmacokinetic experiment in wild-type, Abcb1a/1b-/-, Abcg2-/- and Abcb1a/1b;Abcg2-/- mice
Assay type: in vivo
Conditions: male, FVB, mouse, small intestine, po, 10 mg/kg, male Abcb1a/1b-/- mice, 10 mg/kg oral, 4 h main experiment; read-out: CSI (small intestine tissue concentration)
Experimental readout: concentration at 4 h

Prompt line: Query: concentration at 4 h; subject: `COc1ccc(CN2C3CC2CN(c2ccc(-c4cc(OCC(C)(C)O)cn5ncc(C#N)c45)cn2)C3)cn1`
Response line: 17000 ng/g

====

Test: 4 h pharmacokinetic pilot study in wild-type, Abcb1a/1b;Abcg2-/- and Slco1a/1b-/- mice
Format: in vivo
Settings: male, FVB background, wild-type, mouse, in vivo, po, 10 mg/kg, Cbrain
Experimental readout: concentration at 4 h (ng/g)
Number in ng/g, nothing else.

Prompt line: Query: concentration at 4 h; subject: COc1ccc(CN2C3CC2CN(c2ccc(-c4cc(OCC(C)(C)O)cn5ncc(C#N)c45)cn2)C3)cn1 [selpercatinib]
Response line: 186
